System: LXRa:RXRa (NR concentration 270 nM, RXRa partner concentration 90 nM)
Assay: PBM binding z-score (relative to random genomic background probes); higher = stronger binding; sequences stand for … in GC…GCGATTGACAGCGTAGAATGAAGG
Param threshold (2) applies to PBM binding z-score; output t when value >= threshold, f when value < threshold.

Ask | Answer whether PBM binding z-score of "CCAGACAGGTGAGAAGGTAACTCCGCCTCGATTA" is greater than or equal to 2.
Reply | f

Ask | Answer whether PBM binding z-score of "ATATGTATGTTACATCCGGGTCATTCAGGCTATG" is greater than or equal to 2.
Reply | f

Ask | Answer whether PBM binding z-score of "AATAGCAGGCCAAGGGTCACTCAAGATTAGTCCG" is greater than or equal to 2.
Reply | t

Ask | Answer whether PBM binding z-score of "CTCGAAAGGTCGTGCGCAGGTGAGTATACCAAAC" is greater than or equal to 2.
Reply | t

Ask | Answer whether PBM binding z-score of "AGGACGAGGGCAATGAGTTGATAGCACGGGTGGC" is greater than or equal to 2.
Reply | f

Ask | Answer whether PBM binding z-score of "CCTACTGGGCCATCAGGTCGTTGATATCAACGTT" is greater than or equal to 2.
Reply | f

Ask | Answer whether PBM binding z-score of "AGAATGAGGGTATTAAGATCAGGGAATTGCGGTC" is greater than or equal to 2.
Reply | f

Ask | Answer whether PBM binding z-score of "ACTAGTTGGTCAGCTGAGTTCACACACAATTCGG" is greater than or equal to 2.
Reply | f

Ask | Answer whether PBM binding z-score of "CGTCAAAGTTCAAGGAAACGTAACAGAAAGCAGC" is greater than or equal to 2.
Reply | t

Ask | Answer whether PBM binding z-score of "ATATCTAGGTAAAGATAGTTCAGTGAATGCAAAT" is greater than or equal to 2.
Reply | t

Ask | Answer whether PBM binding z-score of "CGTCAAAGTTTAAGGTAACGTAACAGAAAGCAGC" is greater than or equal to 2.
Reply | f

Ask | Answer whether PBM binding z-score of "TCTTGTAGATCAACAGGAGGTTAAGAAAGATCGA" is greater than or equal to 2.
Reply | f

Ask | Answer whether PBM binding z-score of "AGAACGAGGGCACGCTCAGTTGATAGCAGAGTAG" is greater than or equal to 2.
Reply | f

Ask | Answer whether PBM binding z-score of "TCGAGCAGGTTAGGGGCATTCAGAATGGCGTCGA" is greater than or equal to 2.
Reply | f

Ask | Answer whether PBM binding z-score of "CCGACTGGGGCGTAAGGTTACCATAAGCCAGCCC" is greater than or equal to 2.
Reply | f

Ask | Answer whether PBM binding z-score of "CCGACTGGGGCAAAGATTACCATACTCAGTACGA" is greater than or equal to 2.
Reply | f

Ask | Answer whether PBM binding z-score of "CGTCCAAGGTCAAAGGTCAGTCAAGAGATGACGG" is greater than or equal to 2.
Reply | t

Ask | Answer whether PBM binding z-score of "TCTGCTACGTCAACGATGGTCAGCTAATCTGCTA" is greater than or equal to 2.
Reply | f

Ask | Answer whether PBM binding z-score of "TCTTGTAGATCACAGGTTAAGAAAGCCGAAGCCT" is greater than or equal to 2.
Reply | f

Ask | Answer whether PBM binding z-score of "TCGAGTAGGTTACCAATGGGACATTCAGCTTTCT" is greater than or equal to 2.
Reply | f

Ask | Answer whether PBM binding z-score of "CAAACTAGGTCACGGAGGTCAAAGTCCGTGCGTA" is greater than or equal to 2.
Reply | t

Ask | Answer whether PBM binding z-score of "GTACCAAGGTCAATAGGTCGTTGATGAGTAGGCG" is greater than or equal to 2.
Reply | t

Ask | Answer whether PBM binding z-score of "TAGCGTAGGTCATTCAGGGGCCAGTATAGAAAGC" is greater than or equal to 2.
Reply | t

Ask | Answer whether PBM binding z-score of "TCTCGGAGGACACGAAGGTCAGAGCGTTCCAGAG" is greater than or equal to 2.
Reply | f

Ask | Answer whether PBM binding z-score of "TCGAGTAGGTCAGTCGGGGCATTCAGCCAACATA" is greater than or equal to 2.
Reply | f

Ask | Answer whether PBM binding z-score of "TTTTGTAGATCAAGCAGGTTAAGAAAGCCTGAGT" is greater than or equal to 2.
Reply | f

====

Tested on: RARb homodimer (NR concentration 270 nM)
Assay: PBM binding z-score (relative to random genomic background probes); higher = stronger binding; sequences stand for … in GC…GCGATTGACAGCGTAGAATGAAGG
Param threshold (3) applies to PBM binding z-score; output yes when value >= threshold, no when value < threshold.

Ask | Answer whether PBM binding z-score of "TACCCTAGGTCAGATCGGGCCAGTATACGCTATA" is greater than or equal to 3.
Reply | no

Ask | Answer whether PBM binding z-score of "CCGGACAGGTGAGAAGGTAACTCAGCCTCGATTA" is greater than or equal to 3.
Reply | no

Ask | Answer whether PBM binding z-score of "CCTTGCGGGTCACTCCAGGTTATAGCATCGGAGT" is greater than or equal to 3.
Reply | no

Ask | Answer whether PBM binding z-score of "TCTTGTAGATTAATAGAGGTTAAGAAAGTGCGCT" is greater than or equal to 3.
Reply | no

Ask | Answer whether PBM binding z-score of "TATACACGGTCAAAGGCCAGAGTACGAATGTCGA" is greater than or equal to 3.
Reply | no

Ask | Answer whether PBM binding z-score of "ATATGAAGGTTAAGGGTCATTCAGGTTGGTTCGC" is greater than or equal to 3.
Reply | yes

Ask | Answer whether PBM binding z-score of "GATACAGGGTCAGCTAGACGCCAGAGTATGGAAA" is greater than or equal to 3.
Reply | no

Ask | Answer whether PBM binding z-score of "AGAATGACGTTAAGATCAGGGAAACAGAATACAT" is greater than or equal to 3.
Reply | no

Ask | Answer whether PBM binding z-score of "GTACCAAGGTGAATAGGTCGTTGTTGAGTAGGCG" is greater than or equal to 3.
Reply | no

Ask | Answer whether PBM binding z-score of "ACTTACGGGTCAACGAGGTTATAACACGCGTATA" is greater than or equal to 3.
Reply | yes

Ask | Answer whether PBM binding z-score of "TAGCCTAGGTTATTGGGCCAGTATAGTACGCATC" is greater than or equal to 3.
Reply | no

Ask | Answer whether PBM binding z-score of "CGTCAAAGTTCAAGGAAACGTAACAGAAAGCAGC" is greater than or equal to 3.
Reply | yes

Ask | Answer whether PBM binding z-score of "TCTTGTAGATCAATAGAGGTTAAGGAAGTGCGCT" is greater than or equal to 3.
Reply | no

Ask | Answer whether PBM binding z-score of "AGAATGAGGTTAGGATCAGGGAAACAGAATACAT" is greater than or equal to 3.
Reply | no

Ask | Answer whether PBM binding z-score of "GCAGACAGGTGATACGCAGGTAACTCAGGGTGGC" is greater than or equal to 3.
Reply | no

Ask | Answer whether PBM binding z-score of "TGAATGAGGTTATAACATCAGGGAACGTTGCAAA" is greater than or equal to 3.
Reply | no

Ask | Answer whether PBM binding z-score of "ATCTCTAGGTGAAGTTCAGTGAAAGATCGATAGA" is greater than or equal to 3.
Reply | no

Ask | Answer whether PBM binding z-score of "GCTCGGAGGACAAGGTCAAAGCTTTGTCCGTAGA" is greater than or equal to 3.
Reply | yes

Ask | Answer whether PBM binding z-score of "TCTTGTAGATCAACAGGAGGTTAAGAATGATCGA" is greater than or equal to 3.
Reply | no

Ask | Answer whether PBM binding z-score of "GTACCAAGGTGAATGGGTCGTTGATGAGTAGGCG" is greater than or equal to 3.
Reply | no

Ask | Answer whether PBM binding z-score of "ATCTCTAGGTAACCAAGTTCGGTGAATGCCGAAC" is greater than or equal to 3.
Reply | no

Ask | Answer whether PBM binding z-score of "TCGAGTAGGTTAGTCGGGGCATCCAGCCAACATA" is greater than or equal to 3.
Reply | no

Ask | Answer whether PBM binding z-score of "TAGCCTAGGTCAGATCTGGCCAGTATACGCTATA" is greater than or equal to 3.
Reply | no

Ask | Answer whether PBM binding z-score of "AGAATGAGGTTACCAAAGATCAAGGAAACGCTTG" is greater than or equal to 3.
Reply | no

Ask | Answer whether PBM binding z-score of "AGTCAAAGTTCATCTAGGTAGCGTAAGATATGCT" is greater than or equal to 3.
Reply | yes

Ask | Answer whether PBM binding z-score of "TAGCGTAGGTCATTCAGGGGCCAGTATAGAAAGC" is greater than or equal to 3.
Reply | yes
